- system: human recombinant dopamine D3 receptor (Homo sapiens (Human), UniProt P35462)
- Sequence (P35462 whole entry): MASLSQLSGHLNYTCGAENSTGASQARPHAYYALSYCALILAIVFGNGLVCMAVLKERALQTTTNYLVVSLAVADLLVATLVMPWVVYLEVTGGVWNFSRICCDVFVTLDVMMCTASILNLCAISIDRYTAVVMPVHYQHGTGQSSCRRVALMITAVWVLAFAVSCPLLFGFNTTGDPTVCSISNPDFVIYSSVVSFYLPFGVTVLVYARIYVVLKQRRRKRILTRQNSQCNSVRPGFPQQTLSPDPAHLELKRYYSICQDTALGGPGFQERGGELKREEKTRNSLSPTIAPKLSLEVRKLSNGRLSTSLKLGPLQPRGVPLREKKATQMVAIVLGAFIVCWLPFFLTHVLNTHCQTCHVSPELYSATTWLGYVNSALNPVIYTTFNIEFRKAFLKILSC
- measurement_notes: Test of binding inhibition for dopamine D3 receptor ([3H]-Methylspiperone SPA)
- conditions_used: Jump-In HEK cell membranes, 2 nM [3H]-Methylspiperone, 120 min at 25° C.; read-out: hD3_Ki
observable: pKi
pKi here: minus log base 10 of the concentration, concentration in moles per litre.

Please review the following examples before continuing.
Cn1ncc(CC(=O)N[C@H]2CC[C@H](CCN3CCc4ccc(OCC(F)F)nc4CC3)CC2)c1F	9.07
Cn1ncc(CC(=O)N[C@H]2CC[C@](F)(CCN3CCc4ccc(OCC(F)(F)F)nc4CC3)CC2)n1	10.11
Cc1ncc(CC(=O)N[C@H]2CC[C@](F)(CCN3CCc4nc(OCC(C)(F)F)sc4CC3)CC2)o1	9.92

Here's the next entry for you.
`Cc1nnc(CC(=O)N[C@H]2CC[C@H](CCN3CCc4nc(OC5CC(F)(F)C5)sc4CC3)CC2)o1` yielded pKi of 9.57

The measured values listed here are drawn from patent US11578084B2.
